- Test system: Shionogi mouse mammary carcinoma cells
- protocol.notes: Androgenic/antiandrogenic activity on DHT-stimulated Shionogi cell growth
- Type: cell-based
- measurement.setup: Mus musculus, read-out: Shionogi Antiandrogenic activity IC50 (nM), inhibition of DHT-stimulated Shionogi cell number
Recorded IC50 split into classes low range = under 0.8 nM, mid range = from 0.8 nM up to 7 nM, high range = 7 nM and over

A selection of reference data follows.
State the class of the molecule shown: CC(C)(NCc1ccccc1)c1cccc(OCC[C@]23CCC4C(CCC5CC(=O)CC[C@@]54C)C2CC[C@@H]3O)c1 (some centres unmarked) [EM-6708]
high range

State the class of the molecule shown: CCC(NC1CCCCC1)c1cncc(OCC[C@]23CCC4C(CCC5CC(=O)CC[C@@]54C)C2CCC3O)c1 (some centres unmarked) [EM-7093]
low range

State the class of the molecule shown: CCCN(C1CC1)C(CC)c1cccc(OCC[C@]23CCC4C(CCC5CC(=O)CC[C@@]54C)C2CC[C@@H]3O)c1 (some centres unmarked) [EM-6735]
mid range

State the class of the molecule shown: CCC(CC)NCc1ccc(F)c(OCC[C@]23CCC4C(CCC5CC(=O)CC[C@@]54C)C2CC[C@@H]3OC)c1 (some centres unmarked) [EM-6406]
high range

Continuing:
State the class of the molecule shown: CCCC(NC(CC)CC)c1cccc(OCC[C@]23CCC4C5CCC(=O)C=C5C[C@@H](C)C4C2CC[C@@H]3O)c1 (mixture of isomers) [EM-7128]
low range

State the class of the molecule shown: CC[C@H](NC1CCCCC1)c1cccc(OCC[C@]23CCC4C(CCC5CC(=O)CC[C@@]54C)C2CC[C@@H]3O)c1 (some centres unmarked) [EM-6415]
low range

State the class of the molecule shown: CCCCN1CCCCC1c1ccc(C)c(OCC[C@]23CCC4C(CCC5CC(=O)CC[C@@]54C)C2CC[C@@H]3O)c1 (some centres unmarked) [EM-6261]
mid range

State the class of the molecule shown: CCC(NC1CCCC1)c1cccc(OCC[C@]23CCC4C(CCC5CC(=O)CC[C@@]54C)C2CC[C@@H]3O)c1 (some centres unmarked) [EM-6537]
low range

State the class of the molecule shown: CCC(CC)NCc1ccc(F)c(OCC[C@]23CCC4C(CCC5CC(=NO)CC[C@@]54C)C2CC[C@@H]3O)c1 (some centres unmarked) [EM-6409]
mid range

State the class of the molecule shown: CCCCCN1CCCCC1c1cccc(OCC[C@]23CCC4C(CCC5CC(=O)CC[C@@]54C)C2CC[C@@H]3O)c1 (some centres unmarked) [EM-6494]
high range

State the class of the molecule shown: CC[C@@H](NC1CCCCC1)c1cccc(OCC[C@]23CCC4C(CCC5CC(=O)CC[C@@]54C)C2CCC3O)c1 (some centres unmarked) [EM-7062]
low range

State the class of the molecule shown: CN(C)CC(NC1CCCCC1)c1cncc(OCC[C@]23CCC4C(CCC5=CC(=O)CC[C@@]54C)C2CCC3O)c1 (some centres unmarked) [EM-7221]
high range

State the class of the molecule shown: CCC(CC)NC(CC)c1ccc(F)c(OCC[C@]23CCC4C(CCC5CC(=O)CC[C@@]54C)C2CC[C@@H]3O)c1 (some centres unmarked) [EM-6449]
mid range
